Test system: A431 cell carrying EGFR WT
Assay: Cell proliferation inhibitory activity assay, A431
Format: cell-based
Measurement Parameters: Homo sapiens, A-431; cell proliferation inhibition, 72 hours, luminescence
Result Type: IC50 (nM)
Enter your answer as a number in nM; do not include the unit.

Check out these entries, answers already filled in.
• Cc1cc2cc(n1)-c1cnccc1OCCC[C@@H](C)Cn1c(nc3ccc(N4CCC5(CC4)CCN(C4COC4)CC5)cc31)NC2=O = 274
• Cc1cc2cc(n1)-c1cnccc1OCCC[C@@H](C)Cn1c(nc3ccc(N4CCC5(CC4)CCN(C4COC4C)CC5)cc31)NC2=O (stereo partly shown) = 294

Form field IC50, entry Cc1cc2cc(n1)-c1cnccc1OCCCCCn1c(nc3ccc(N4CCC5(CCN(CCN(C)C)CC5)CC4)cc31)NC2=O : 1410

---

Study Target: Ba/F3 cells overexpressing EGFR Del19/T790M/C797S (Homo sapiens, UniProt P00533, T790M/C797S, cells depend on it, form not given)
Sequence (P00533 with tags, fused parts or gaps DEL746-750/T790M/C797S, form open): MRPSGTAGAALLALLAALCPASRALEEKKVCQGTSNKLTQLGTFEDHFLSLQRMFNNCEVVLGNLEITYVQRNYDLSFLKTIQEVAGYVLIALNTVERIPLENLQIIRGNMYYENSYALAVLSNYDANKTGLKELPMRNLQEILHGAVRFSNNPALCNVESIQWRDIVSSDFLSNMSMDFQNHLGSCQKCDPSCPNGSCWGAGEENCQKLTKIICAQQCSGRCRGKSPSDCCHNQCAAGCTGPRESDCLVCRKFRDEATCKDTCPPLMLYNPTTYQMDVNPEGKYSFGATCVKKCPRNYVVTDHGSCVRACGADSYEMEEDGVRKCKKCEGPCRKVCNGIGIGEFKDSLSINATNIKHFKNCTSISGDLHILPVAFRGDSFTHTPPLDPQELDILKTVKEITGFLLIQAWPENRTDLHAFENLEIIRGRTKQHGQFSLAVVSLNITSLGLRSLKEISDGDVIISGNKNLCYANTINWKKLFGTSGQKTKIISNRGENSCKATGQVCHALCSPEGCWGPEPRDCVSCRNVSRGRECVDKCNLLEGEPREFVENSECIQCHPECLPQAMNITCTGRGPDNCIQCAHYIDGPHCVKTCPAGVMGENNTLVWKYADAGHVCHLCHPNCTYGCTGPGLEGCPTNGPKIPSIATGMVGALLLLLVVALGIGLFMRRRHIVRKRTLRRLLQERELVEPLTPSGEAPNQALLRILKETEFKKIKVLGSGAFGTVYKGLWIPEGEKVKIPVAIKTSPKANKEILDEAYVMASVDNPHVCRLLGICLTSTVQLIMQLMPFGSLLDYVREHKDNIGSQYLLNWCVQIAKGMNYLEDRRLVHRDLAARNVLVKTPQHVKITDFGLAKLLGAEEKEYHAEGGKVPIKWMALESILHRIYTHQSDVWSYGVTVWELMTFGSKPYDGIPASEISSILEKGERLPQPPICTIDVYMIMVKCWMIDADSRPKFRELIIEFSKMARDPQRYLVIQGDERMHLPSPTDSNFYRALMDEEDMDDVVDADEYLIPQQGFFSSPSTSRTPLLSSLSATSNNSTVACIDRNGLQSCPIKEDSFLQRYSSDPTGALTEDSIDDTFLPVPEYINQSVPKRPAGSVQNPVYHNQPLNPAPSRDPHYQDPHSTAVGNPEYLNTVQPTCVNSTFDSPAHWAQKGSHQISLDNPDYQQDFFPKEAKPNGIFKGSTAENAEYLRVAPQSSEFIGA
Assay: Cell proliferation inhibitory activity assay, Ba/F3 EGFR Del19/T790M/C797S
Format: cell-based
Measurement Parameters: cell proliferation inhibition, 72 hours, luminescence; read-out: Ba/F3 cells overexpressing different EGFR mutations IC50 (nM) Del19/T790M/C797S
Attribute: GI50
Enter your answer as a number in nM; do not include the unit.

• Cc1cc2cc(n1)-c1cnccc1OCCCCCn1c(nc3ccc(N4CCC5(CCN(C)CC5)CC4)cc31)NC2=O = 0.24
• Cc1cc2cc(n1)-c1cnccc1OCCCCCn1c(nc3ccc(N4CCC5(CCN(CC(C)(C)F)CC5)CC4)cc31)NC2=O = 5.9

Form field GI50, entry COC(C)(C)CC(C)N1CCC2(CCN(c3ccc4nc5n(c4c3)CCCCCOc3ccncc3-c3cc(cc(C)n3)C(=O)N5)CC2)CC1 (stereo not drawn) : 4.2

---

Assay: Pharmacokinetics in rats
Format: in vivo, rat
Measurement Parameters: rat, po; male SD rats, 5 mg/kg orally by gavage, plasma; read-out: Cmax
Result Type: log10(Cmax) (log10 of the value in ng/mL)
Values are log10 of Cmax in ng/mL.

• Cc1cc2cc(n1)-c1cnc(F)cc1OCCC[C@@H](C)Cn1c(nc3ccc(N4CCC5(CC4)CCN(C4COC4)CC5)cc31)NC2=O [Example 81] = 2.06
• Cc1cc2cc(n1)-c1cnccc1OCCC[C@@H](C)Cn1c(nc3cc(F)c(N4CCC5(CC4)CCN(C4COC4)CC5)cc31)NC2=O [Example 6] = 2.03
• Cc1cc2cc(n1)-c1cnccc1OCCC[C@@H](C)Cn1c(nc3ccc(N4CCC5(CC4)CCN(C4COC4)CC5)cc31)NC2=O [Example 4] = 2.22
• Cc1cc2cc(n1)-c1cnccc1OCCCCCn1c(nc3ccc(N4CCC5(CC4)CCN(C4COC4)CC5)cc31)NC2=O [Example 52] = 1.76
• Cc1cc2cc(n1)-c1cnn(C)c1OCCC[C@@H](C)CN1/C(=N/C2=O)Nc2ccc(CN3CCC4(CC3)COC4)cc21 [compound 2, reference compound] = 1.44
• Cc1cc2cc(n1)-c1cnn(C)c1OCCC[C@@H](C)CN1/C(=N/C2=O)Nc2ccc(CN3CCN(C)CC3)cc21 [compound 1, reference compound] = 1.02

Next compound, log10(Cmax) to be filled in.
Form field log10(Cmax), entry CO[C@@H]1CCC(N2CCC3(CCN(c4ccc5nc6n(c5c4)CCCCCOc4ccncc4-c4cc(cc(C)n4)C(=O)N6)CC3)CC2)C[C@@H]1F (stereo partly shown) [Example 15] : 2.02

---

Study Target: Ba/F3 (EGFR L858R/T790M/C797S) (Homo sapiens, UniProt P00533, T790M/C797S/L858R, cells depend on it)
Sequence (P00533 whole entry T790M/C797S/L858R): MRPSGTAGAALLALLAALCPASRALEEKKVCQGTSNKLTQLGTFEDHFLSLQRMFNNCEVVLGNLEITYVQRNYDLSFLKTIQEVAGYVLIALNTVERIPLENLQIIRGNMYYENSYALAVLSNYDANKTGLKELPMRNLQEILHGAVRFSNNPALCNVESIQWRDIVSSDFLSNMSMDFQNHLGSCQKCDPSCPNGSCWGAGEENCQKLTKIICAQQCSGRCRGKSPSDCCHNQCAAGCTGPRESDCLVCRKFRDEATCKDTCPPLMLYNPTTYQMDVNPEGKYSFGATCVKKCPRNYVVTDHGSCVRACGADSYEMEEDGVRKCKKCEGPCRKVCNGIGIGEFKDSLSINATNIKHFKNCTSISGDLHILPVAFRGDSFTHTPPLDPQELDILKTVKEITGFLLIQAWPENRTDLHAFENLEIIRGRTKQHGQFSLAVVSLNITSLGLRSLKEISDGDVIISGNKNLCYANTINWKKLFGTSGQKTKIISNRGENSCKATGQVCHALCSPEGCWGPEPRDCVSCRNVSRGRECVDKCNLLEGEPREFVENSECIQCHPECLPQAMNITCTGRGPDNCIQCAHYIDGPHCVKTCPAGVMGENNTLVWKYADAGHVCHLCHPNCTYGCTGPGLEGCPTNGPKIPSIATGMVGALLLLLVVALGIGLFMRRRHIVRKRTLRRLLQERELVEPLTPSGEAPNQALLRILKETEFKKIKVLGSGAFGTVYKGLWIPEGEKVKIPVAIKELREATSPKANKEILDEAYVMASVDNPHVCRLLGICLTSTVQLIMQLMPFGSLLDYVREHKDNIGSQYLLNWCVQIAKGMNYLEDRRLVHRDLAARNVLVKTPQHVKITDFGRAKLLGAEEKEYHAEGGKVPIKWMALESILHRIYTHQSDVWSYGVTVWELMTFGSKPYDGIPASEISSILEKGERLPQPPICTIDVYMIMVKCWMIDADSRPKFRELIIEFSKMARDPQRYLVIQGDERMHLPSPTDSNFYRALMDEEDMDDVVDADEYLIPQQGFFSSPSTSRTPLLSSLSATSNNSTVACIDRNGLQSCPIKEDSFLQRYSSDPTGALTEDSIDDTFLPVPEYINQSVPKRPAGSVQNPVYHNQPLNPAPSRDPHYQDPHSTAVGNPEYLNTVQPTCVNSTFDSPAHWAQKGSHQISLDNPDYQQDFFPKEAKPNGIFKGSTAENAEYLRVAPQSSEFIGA
Assay: Cell proliferation inhibitory activity assay, Ba/F3 EGFR L858R/T790M/C797S
Assay type: cell-based
Measurement Parameters: cell proliferation inhibition, 72 hours, luminescence; read-out: Ba/F3 cells overexpressing different EGFR mutations IC50 (nM) L858R/T790M/C797S
# class assignment by measured GI50: LOW = under 2 nM, MID = from 2 nM up to 5 nM, HIGH = 5 nM and over

- COC(C)(C)CC(C)N1CCC2(CCN(c3ccc4nc5n(c4c3)CCCCCOc3ccncc3-c3cc(cc(C)n3)C(=O)N5)CC2)CC1 (stereo not drawn) [Example 90]: HIGH
- Cc1cc2cc(n1)-c1cnccc1OCCC[C@@H](C)Cn1c(nc3ccc(N4CCC5(CC4)CCN(C4CC4)CC5)cc31)NC2=O [Example 45]: MID

Below: the item to evaluate.
In: Form field 'band' for Cc1cc2cc(n1)-c1cnccc1OCCCCCn1c(nc3cc(F)c(N4CCC5(CCN(CC6COC6)CC5)CC4)cc31)NC2=O [Example 62]
Out: MID

---

Attribute: AUC(0-t)
Assay: Pharmacokinetics in mice
Assay type: in vivo, mouse
Measurement Parameters: mouse, po; female BALB/c mice, 5 mg/kg orally by gavage, plasma
Enter your answer as a number in ng·h/mL; do not include the unit.

* Cc1cc2cc(n1)-c1cnccc1OCCC[C@@H](C)Cn1c(nc3cc(F)c(N4CCC5(CC4)CCN(C4COC4)CC5)cc31)NC2=O [Example 6] | 1140
* Cc1cc2cc(n1)-c1cnccc1OCCCCCn1c(nc3ccc(N4CCC5(CC4)CCN(C4COC4)CC5)cc31)NC2=O [Example 52] | 3460
* Cc1cc2cc(n1)-c1cnccc1OCCC[C@@H](C)Cn1c(nc3ccc(N4CCC5(CC4)CCN(C4COC4)CC5)cc31)NC2=O [Example 4] | 2090

Form field AUC(0-t), entry Cc1cc2cc(n1)-c1cnn(C)c1OCCC[C@@H](C)CN1/C(=N/C2=O)Nc2ccc(CN3CCN(C)CC3)cc21 [compound 1, reference compound] : 361

---

Attribute: Cmax
Assay: Pharmacokinetics in mice
Assay type: in vivo, mouse
Measurement Parameters: mouse, po; female BALB/c mice, 5 mg/kg orally by gavage, plasma; read-out: Cmax
Enter your answer as a number in ng/mL; do not include the unit.

Form field Cmax, entry Cc1cc2cc(n1)-c1cnn(C)c1OCCC[C@@H](C)CN1/C(=N/C2=O)Nc2ccc(CN3CCN(C)CC3)cc21 [compound 1, reference compound] : 32.8

Form field Cmax, entry Cc1cc2cc(n1)-c1cnccc1OCCC[C@@H](C)Cn1c(nc3cc(F)c(N4CCC5(CC4)CCN(C4COC4)CC5)cc31)NC2=O : 92.4

Form field Cmax, entry Cc1cc2cc(n1)-c1cnccc1OCCC[C@@H](C)Cn1c(nc3ccc(N4CCC5(CC4)CCN(C4COC4)CC5)cc31)NC2=O : 181

Form field Cmax, entry Cc1cc2cc(n1)-c1cnccc1OCCCCCn1c(nc3ccc(N4CCC5(CC4)CCN(C4COC4)CC5)cc31)NC2=O : 215

---

Study Target: Ba/F3 (EGFR L858R/T790M/C797S) (Homo sapiens, UniProt P00533, T790M/C797S/L858R, cells depend on it)
Assay: Cell proliferation inhibitory activity assay, Ba/F3 EGFR L858R/T790M/C797S
Assay type: cell-based
Measurement Parameters: cell proliferation inhibition, 72 hours, luminescence; read-out: Ba/F3 cells overexpressing different EGFR mutations IC50 (nM) L858R/T790M/C797S
Result Type: GI50 (nM)
Enter your answer as a number in nM; do not include the unit.

Check out these entries, answers already filled in.
• Cc1cc2cc(n1)-c1cnccc1OCCC[C@@H](C)Cn1c(nc3cc(F)c(N4CCC5(CC4)CCN(C4COC4)CC5)cc31)NC2=O = 4.1
• Cc1cc2cc(n1)-c1cnccc1OCCCCCn1c(nc3ccc(N4CCC5(CCN(CCC(N)=O)CC5)CC4)cc31)NC2=O = 2.1

Form field GI50, entry Cc1cc2cc(n1)-c1cnccc1OCCC[C@@H](C)Cn1c(nc3ccc(N4CCC5(CCN(C)CC5)CC4)cc31)NC2=O : 0.71

Form field GI50, entry Cc1cc2cc(n1)-c1cnccc1OCCC[C@@H](C)Cn1c(nc3cc(C)c(N4CCC5(CC4)CCN(C4COC4)CC5)cc31)NC2=O : 7.6

Form field GI50, entry Cc1cc2cc(n1)-c1cnccc1OCCCCCn1c(nc3cc(C)c(N4CCC5(CCN(C)CC5)CC4)cc31)NC2=O : 2

Form field GI50, entry COCCN1CCC2(CC1)CCN(c1ccc3nc4n(c3c1)CCCCCOc1ccncc1-c1cc(cc(C)n1)C(=O)N4)CC2 : 0.08

Form field GI50, entry Cc1cc2cc(n1)-c1cnccc1OCCC[C@@H](C)Cn1c(nc3ccc(N4CCC5(CC4)CCN(C4COC4)CC5)cc31)NC2=O : 1.1

Form field GI50, entry Cc1cc2cc(n1)-c1cnccc1OCCCCCn1c(nc3cc(F)c(N4CCC5(CCN(C)CC5)CC4)cc31)NC2=O : 1.5

Form field GI50, entry Cc1cc2cc(n1)-c1cnccc1OCCCCCn1c(nc3ccc(N4CCC5(CCN(CC(C)(C)F)CC5)CC4)cc31)NC2=O : 12

Form field GI50, entry Cc1cc2cc(n1)-c1cnccc1OCCC[C@@H](C)Cn1c(nc3cc(C)c(N4CCC5(CCN(C)CC5)CC4)cc31)NC2=O : 3.4

Form field GI50, entry Cc1cc2cc(n1)-c1cnc(F)cc1OCCC[C@@H](C)Cn1c(nc3ccc(N4CCC5(CCNCC5)CC4)cc31)NC2=O : 1.1

Form field GI50, entry Cc1cc2cc(n1)-c1cnccc1OCCC[C@@H](C)Cn1c(nc3cc(F)c(N4CCC5(CCN(C)CC5)CC4)cc31)NC2=O : 0.98

Form field GI50, entry Cc1cc2cc(n1)-c1cnccc1OCCCCCn1c(nc3ccc(N4CCC5(CCN(C)CC5)CC4)cc31)NC2=O : 0.62

Form field GI50, entry Cc1cc2cc(n1)-c1cnccc1OCCCCCn1c(nc3cc(C)c(N4CCC5(CCN(CCF)CC5)CC4)cc31)NC2=O : 3.7
